The measurements presented in this section are drawn from paper PMC9182199.

- System: Penicillium decumbens α-L-rhamnosidase
- assay info: Glycosidase inhibition, laboratory 1: α-L-rhamnosidase
- Format: biochemical
- experimental context: 100 μM, methanol
readout type: inhibition % at 100 μM

N[C@@H](Cc1ccc(B(O)O)cc1)C(=O)O [BPA, 4-borono-L-phenylalanine, reference compound] = ^cNI ^d (0%)
N[C@@H](Cc1ccc(B(O)O)cc1)C(=O)O [^10B-BPA, reference compound] = ^cNI ^d (0%)

###

I'd appreciate it if you could supply inhibition at 100 µM values for the items below.
- assayed system: yeast α-glucosidase (Saccharomyces cerevisiae)
- Construct: purchased Sigma
- Sequence (P53341 whole entry): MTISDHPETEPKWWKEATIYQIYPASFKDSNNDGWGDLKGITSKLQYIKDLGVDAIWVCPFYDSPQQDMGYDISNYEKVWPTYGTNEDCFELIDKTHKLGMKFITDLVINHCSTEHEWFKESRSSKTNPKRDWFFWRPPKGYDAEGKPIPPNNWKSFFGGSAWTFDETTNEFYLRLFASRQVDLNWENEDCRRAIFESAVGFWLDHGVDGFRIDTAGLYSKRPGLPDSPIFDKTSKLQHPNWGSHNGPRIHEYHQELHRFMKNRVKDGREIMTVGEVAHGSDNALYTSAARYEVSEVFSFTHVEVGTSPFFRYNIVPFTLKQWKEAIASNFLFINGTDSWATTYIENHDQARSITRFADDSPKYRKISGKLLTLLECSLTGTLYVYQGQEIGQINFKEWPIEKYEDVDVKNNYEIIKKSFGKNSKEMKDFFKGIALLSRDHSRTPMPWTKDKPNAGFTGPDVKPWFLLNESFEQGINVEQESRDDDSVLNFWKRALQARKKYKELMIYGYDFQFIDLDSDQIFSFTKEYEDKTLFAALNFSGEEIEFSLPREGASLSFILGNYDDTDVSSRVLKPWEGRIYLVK
- assay info: Glycosidase inhibition, laboratory 1: yeast α-glucosidase
- Assay type: biochemical
- experimental context: 100 μM, methanol
Please give the number followed by its unit.

Use the examples below as a reference point.
CC1(C)OB(c2ccc(CN3C(=O)c4c(Cl)c(Cl)c(Cl)c(Cl)c4C3=O)cc2)OC1(C)C = 0%
CC1(C)OB(c2ccccc2CNC(=O)c2cc(Cl)c(Cl)c(Cl)c2Cl)OC1(C)C = 0%
CC1(C)OB(c2ccc(NC(=O)c3cc(Cl)c(Cl)c(Cl)c3Cl)cc2)OC1(C)C = 0%

Now look at this entry.
# compound CC1(C)OB(c2cccc(NC(=O)c3cc(Cl)c(Cl)c(Cl)c3Cl)c2)OC1(C)C ; its inhibition at 100 µM = 12.8%
